Below, each of the binders is paired with its reported EC50 value.
Biological target: T1, SARS-CoV-2 Alpha Variant RBD (SARS-CoV-2 Alpha variant)
T1 construct: domain: RBD; coated on ELISA plates
Experiment: ELISA, RBD coated
Supply the numeric figure in nM, leaving out any unit text.

# BINDER, READOUT KIND, NUMERIC READOUT
records = [
    ("PP1153 MBP-5HVZ-PAPA-R5d-D4-H6 (VHH, Form: Dimer) VHH: QVQLVESGGGLVQPGGSLRLSCAASGSDFTINAMHWFRQAPGKQREFVATITSTSSTAYRDSVKGRFTISRDNAKNTVYLQMNSLKPEDTAVYYCAAFAVRDADTAGWTARDYWGQGTQVTVSS", "EC50", 0.91),
]

Attention now turns to another entry.
*Q* I'd like to know its EC50. The binder in question is PP913 MBP-5HVZ-S3a-C5-H6 (VHH, Form: Dimer) VHH: QVQLVESGGGLVQPGGSLRLSCAASGSIKNTNAMHWFRQAPGKDREWVAGITSGGNSNYGDSVKGRFTISRDNAKNTVYLQMNSLKPEDTAVYYCAAFGYRYDQDYTYDYWGQGTQVTVSS
*A* 1.33
